# Target: human PDGFRβ (Homo sapiens (Human), UniProt P09619)
# Sequence (P09619 561-1106): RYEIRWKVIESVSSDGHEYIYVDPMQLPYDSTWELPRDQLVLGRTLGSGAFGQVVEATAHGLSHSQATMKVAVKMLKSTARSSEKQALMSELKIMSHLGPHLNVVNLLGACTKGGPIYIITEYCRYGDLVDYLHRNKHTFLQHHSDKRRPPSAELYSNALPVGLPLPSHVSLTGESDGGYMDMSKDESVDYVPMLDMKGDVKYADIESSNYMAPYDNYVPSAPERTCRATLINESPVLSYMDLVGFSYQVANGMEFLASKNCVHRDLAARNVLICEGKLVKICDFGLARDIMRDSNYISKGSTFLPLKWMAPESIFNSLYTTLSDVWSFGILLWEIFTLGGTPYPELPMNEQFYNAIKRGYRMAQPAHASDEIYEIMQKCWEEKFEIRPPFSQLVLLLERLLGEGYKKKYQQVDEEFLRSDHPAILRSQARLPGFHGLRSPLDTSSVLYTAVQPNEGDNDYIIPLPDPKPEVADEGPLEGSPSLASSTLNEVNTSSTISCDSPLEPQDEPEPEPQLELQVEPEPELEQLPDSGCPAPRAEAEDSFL
# Measurement Description: PDGFRβ kinase assay (PDGFRβ-HTRF)
# Type: biochemical
# Test Parameters: 10 μM ATP; some mean values from multiple determinations
Test Readout: IC50 (nM)
Please give a number only; it is taken to be in nM.

>>> print(df.to_string())
                                   compound  assay_result
0  Cc1ccc(O)cc1Nc1ccnc2c1C(=O)Nc1cc(CNCC(C)C)ccc1N2 [Example 152]          4.42

In: Item Cc1cc(F)c(Nc2ccnc3c2C(=O)Nc2cc(CN4C[C@H](O)C[C@H]4CO)ccc2N3)cc1O [Example 64] has what recorded IC50?
Out: 0.68

In: Item Cc1cc(F)c(Nc2ccnc3c2C(=O)Nc2cc(CN4CCCC(C(N)=O)C4)ccc2N3)cc1O (racemic) [Example 57] has what recorded IC50?
Out: 1.66

In: Item O=C1Nc2cc(CN3CCC(O)CC3)ccc2Nc2nccc(Nc3cc(O)c(Cl)cc3F)c21 [Example 175] has what recorded IC50?
Out: 1.26

In: Item Cc1ccc(O)cc1Nc1ccnc2c1C(=O)Nc1cc(CNCc3cccc(Cl)c3)ccc1N2 [Example 15] has what recorded IC50?
Out: 5.77

In: Item Cc1ccc(O)cc1Nc1ccnc2c1C(=O)Nc1cc(CNCC(C)(C)C)ccc1N2 [Example 142] has what recorded IC50?
Out: 2.11

In: Item CCOC1CCCN(Cc2ccc3c(c2)NC(=O)c2c(Nc4cc(O)c(C)cc4F)ccnc2N3)C1 (racemic) [Example 67] has what recorded IC50?
Out: 2.23

In: Item Cc1cc(F)c(Nc2ccnc3c2C(=O)Nc2cc(CN4CCN(CCO)CC4)ccc2N3)cc1O [Example 47] has what recorded IC50?
Out: 3.67

In: Item Cc1cc(F)c(Nc2ccnc3c2C(=O)Nc2cc(CN4CCCC4)ccc2N3)cc1O [Example 32] has what recorded IC50?
Out: 3.25

In: Item Cc1cc(F)c(Nc2ccnc3c2C(=O)Nc2cc(CN4CC[C@H](N(C)C)C4)ccc2N3)cc1O [Example 220] has what recorded IC50?
Out: 2.15
